The measured values listed here are drawn from paper PMC6599521.

- TARGET UNDER TEST: murine HCN1 channels (Mus musculus)
- Assay type: cell-based
- RUN PARAMETERS: IC50
READOUT KIND: pIC50
Recall that pIC50 is obtained by taking minus log10 of the concentration measured in molar.

Look at this compound and give its reported pIC50. CC(C)c1cccc(C(C)C)c1O [DIP-P, 2,6-di-iso-propyl phenol, reference compound]
5.24

====

- TARGET UNDER TEST: murine HCN1 channels (Mus musculus)
- Type: cell-based
- RUN PARAMETERS: IC50, Hill fit of ΔV1/2 vs concentration, all parameters free; mean ± SD
READOUT KIND: pIC50
Recall that pIC50 is obtained by taking minus log10 of the concentration measured in molar.

Look at this compound and give its reported pIC50. `CCc1cccc(CC)c1O`
4.60

====

- TARGET UNDER TEST: murine HCN1 channels (Mus musculus, UniProt O88704)
- Sequence (O88704 whole entry): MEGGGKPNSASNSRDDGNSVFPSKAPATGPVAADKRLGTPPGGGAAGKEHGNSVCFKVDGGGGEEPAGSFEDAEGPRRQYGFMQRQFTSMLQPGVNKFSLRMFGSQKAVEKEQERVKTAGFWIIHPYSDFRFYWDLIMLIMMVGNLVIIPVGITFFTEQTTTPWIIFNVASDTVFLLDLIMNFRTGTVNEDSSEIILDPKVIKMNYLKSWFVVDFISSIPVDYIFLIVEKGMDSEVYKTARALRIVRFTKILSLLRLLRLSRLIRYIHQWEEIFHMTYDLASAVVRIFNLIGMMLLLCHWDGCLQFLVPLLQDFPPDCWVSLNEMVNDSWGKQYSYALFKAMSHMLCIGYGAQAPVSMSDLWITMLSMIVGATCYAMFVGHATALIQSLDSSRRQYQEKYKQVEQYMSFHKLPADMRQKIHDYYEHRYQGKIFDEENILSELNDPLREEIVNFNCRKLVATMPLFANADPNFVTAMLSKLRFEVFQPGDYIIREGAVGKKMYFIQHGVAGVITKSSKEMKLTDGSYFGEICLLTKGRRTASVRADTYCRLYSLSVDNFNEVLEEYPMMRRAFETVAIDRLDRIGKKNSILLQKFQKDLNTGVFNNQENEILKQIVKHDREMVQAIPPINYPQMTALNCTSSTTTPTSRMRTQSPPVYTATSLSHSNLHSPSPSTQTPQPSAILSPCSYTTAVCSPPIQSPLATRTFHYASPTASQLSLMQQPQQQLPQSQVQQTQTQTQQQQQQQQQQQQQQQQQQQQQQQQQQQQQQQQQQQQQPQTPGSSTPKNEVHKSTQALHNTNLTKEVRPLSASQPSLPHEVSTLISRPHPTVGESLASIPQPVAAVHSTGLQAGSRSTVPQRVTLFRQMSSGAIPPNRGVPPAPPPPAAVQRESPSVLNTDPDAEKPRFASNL
- Type: cell-based
READOUT KIND: pIC50
Recall that pIC50 is obtained by taking minus log10 of the concentration measured in molar.

Look at this molecule and give its reported pIC50. CC(C)c1cccc(C(C)C)c1F [DIP-PF, 2,6-di-iso-propyl phenyl-fluorine]
3.57

# repeat for CCC1CCCC(CC)C1O (stereo not shown) [DE-CH, 2,6-di-ethyl cyclohexanol]
2.52

# repeat for CC(C)(C)c1cccc(C(C)(C)C)c1O [DTB-P, 2,6-di-tert-butyl phenol]
5.32

# repeat for CC(C)C1CCCC(C(C)C)C1O (stereo not shown) [DIP-CH, 2,6-di-iso-propyl cyclohexanol]
4.46

====

- TARGET UNDER TEST: murine HCN1 channels (Mus musculus)
- Format: cell-based
- RUN PARAMETERS: Hill fit; mean ± SD
Would you kindly list h (Hill coefficient) for each of these compounds?

Look at this compound and give its reported h (Hill coefficient). CC(C)(C)C1CCCC(C(C)(C)C)C1O (stereo not shown)
1.28 ± 0.47

# repeat for `CC(C)(C)c1cccc(C(C)(C)C)c1O`
0.97 ± 0.13

# repeat for `CCc1cccc(CC)c1O`
1.95 ± 0.44

# repeat for CC(C)C1CCCC(C(C)C)C1O (stereo not shown)
0.76 ± 0.19

====

- TARGET UNDER TEST: UniProtKB O88704
- Assay type: cell-based
- RUN PARAMETERS: ligand alone
READOUT KIND: Inverse agonist behavior on HCN1 gating (in words)

Cc1cccc(C)c1O = ineffective
Cc1cccc(C)c1N=C=O [DM-PIC, 2,6-di-methyl phenyl-isocyanate] = ineffective

====

- TARGET UNDER TEST: murine HCN1 channels (Mus musculus, UniProt O88704)
- Assay type: cell-based
- RUN PARAMETERS: Hill fit maximal shift of activation midpoint; mean ± SD
Would you kindly list ΔV1/2 max for each of these compounds?

Look at this compound and give its reported ΔV1/2 max. `CC(C)(C)c1cccc(C(C)(C)C)c1O`
−42.4 ± 2.8 mV

# repeat for CC(C)C1CCCC(C(C)C)C1O (stereo not shown)
−18.9 ± 3.4 mV

# repeat for `CCc1cccc(CC)c1O`
−22.1 ± 1.0 mV

# repeat for CC(C)(C)C1CCCC(C(C)(C)C)C1O (stereo not shown)
−9.9 ± 1.5 mV

====

- TARGET UNDER TEST: murine HCN1 channels (Mus musculus, UniProt O88704)
- Format: cell-based
- RUN PARAMETERS: Hill fit of ΔV1/2 vs concentration, all parameters free; mean ± SD
READOUT KIND: pIC50
Recall that pIC50 is obtained by taking minus log10 of the concentration measured in molar.

Item CC(C)(C)C1CCCC(C(C)(C)C)C1O (stereo not shown) with murine HCN1 channels (Mus musculus, UniProt O88704) - pIC50?
4.94

====

- TARGET UNDER TEST: HCN1 channels (Mus musculus, UniProt O88704)
- Sequence (O88704 whole entry): as above
- METHOD DESCRIPTION: Additivity/competition of ligands with 3 μM DTB-P on HCN1 gating
- Assay type: cell-based, murine
- RUN PARAMETERS: increasing ligand concentrations plus 3 μM DTB-P
READOUT KIND: Behavior in the presence of 3 μM DTB-P (in words)

CC(C)C1CCCC(C(C)C)C1O (centres unmarked) = partial inverse agonists
CC(C)(C)C1CCCC(C(C)(C)C)C1O (centres unmarked) = partial inverse agonists
